TARGET_UNDER_TEST: TAFV GP (YP_003815426.1) (Tai Forest Ebola virus, UniProt Q66810 33-676)
PROTOCOL_SUMMARY: flow cytometry on transiently transfected HEK293 cells
REPORTED_ENDPOINT: binding result

11886 (antibody, V domains shown) VH: QSVEESGGRLVTPGTPLTLTCIVSGFSLSNYYMSWVRQVPGKGLEWIGVIGWSGTSSYASWAKGRFTISKTASTTVDLKITSPTTEDTATYFCARVLYIGGGFNYYDAFDPWGPGTLVTVSS VL: DVVMTQTPASVSEPVGGTVTIKCQASQSIGSNLAWYQQKPGQPPKLLIYAASTLASGVPSRFKGSGSGTEFTLTISDLECADAATYYCQCTYYDSSYVYNNFGGGTEVVVK ... binds
11892 (antibody, V domains shown) VH: QSMEESGGRLVTPGTPLTLTCTVSGFSLSIYSMSWVRQAPGKGLEWIGIIYLGDRAYYASWAKGRFTISKTSSTTVDLKITSPTTEDTATYFCARVAGYAGYGYAFYDAFDPWGPGTLVTVSS VL: DVVMTQTPASVSEPVGGTVTIKCQASQSIGSNLAWYQQKPGQPPKLLIYAASTLASGVPSRFKGSGSGTEFTLTINGVQCDDTATYYCQCTYYANTYVAETFGGGTEVVVK ... binds
11889 (antibody, V domains shown) VH: QSLEESGGDLVKPGASLTLTCTASGFSFSSSYWICWVRQAPGKGLEWIACIYAGSSGSTYYASWAKGRFTISKTSSTTVTLQMTSLTAADTATYFCATAYAVSAPFGYTLFKYFELWGPGTLVTVSS VL: AVVLTQTASPVSAPVGGTVTIKCQASQNIYSDLAWYQQKPGQPPKLLIYDTSNLASGVSSRFKGSRSGTEFTLTISDLECADAATYYCQAYYYSSSSGDTTFGGGTEVVVK ... binds
